# Tested on: TDF
# test method notes: cell number relative to DMSO (% of DMSO); higher = more cells (less growth inhibition / toxicity)
# condition summary: concentration: 10 µM; 24 h
recorded metric: cell number

compound: Nc1nc(=O)c2ncc(=O)[nH]c2[nH]1
system tested: TDF
result value: 108
//
compound: CC#N.Nc1nc(Nc2ccc(S(N)(=O)=O)cc2)nn1C(=O)c1c(F)cccc1F
system tested: TDF
result value: 39.5
//
compound: COC(=O)c1c(C)[nH]c(C)c1C(=O)c1ccccc1Cc1ccccc1
system tested: TDF
result value: 102
//
compound: O=C(O)c1cc(N(Cc2ccccc2O)Cc2ccccc2O)ccc1O
system tested: TDF
result value: 95.2
//
compound: Cc1nn(C)c2nc(NNC(=O)Nc3cc(Cl)nc(Cl)c3)cc(C(C)C)c12
system tested: TDF
result value: 12.8
//
compound: COc1cc(OC)c2cc(-c3ccncc3)cnc2c1.Cl.Cl [5,7-dimethoxy-3-(4-pyridinyl)quinoline dihydrochloride]
system tested: TDF
result value: 102
//
compound: CC(OC(=O)c1ccc(F)cc1F)C(=O)N(C)C1CCS(=O)(=O)C1 (configuration not stated)
system tested: TDF
result value: 29.1
//
compound: Cc1c(-c2cnccn2)ssc1=S
system tested: TDF
result value: 101
//
compound: CC1(C)CCC(C)(C)c2cc(C(=O)Nc3ccc(C(=O)O)cc3)ccc21
system tested: TDF
result value: 104
//
compound: Cc1ccccc1C(OCCN(C)C)c1ccccc1.Cl (configuration not stated) [Orphenadrine hydrochloride]
system tested: TDF
result value: 111
//
compound: O=C(NC(NC(=S)Nc1ccc(F)c([N+](=O)[O-])c1)C(Cl)(Cl)Cl)C(c1ccccc1)c1ccccc1 (configuration not stated) [ATM/ATR Kinase Inhibitor]
system tested: TDF
result value: 64.5
//
compound: CC(C)n1cnc2c(NCc3ccccc3)nc(NCCO)nc21
system tested: TDF
result value: 105
//
compound: CCCS(=O)c1ccc2nc(NC(=O)OC)[nH]c2c1 (configuration not stated)
system tested: TDF
result value: 81.6
//
compound: CC(Cc1ccc(O)c(O)c1)(NN)C(=O)O.O (configuration not stated)
system tested: TDF
result value: 107
//
compound: CCCCCN(CCCCC)C(=O)C(CCC(=O)[O-])NC(=O)c1ccc(Cl)c(Cl)c1.[Na+] (configuration not stated) [Lorglumide sodium]
system tested: TDF
result value: 107
//
compound: Nc1ccc(-c2cccc3c(=O)cc(N4CCOCC4)oc23)cc1
system tested: TDF
result value: 99.3
//
compound: O=C(O)CCc1nc(-c2ccccc2)c(-c2ccccc2)o1
system tested: TDF
result value: 101

* * *

# Test system: HCC1569
# test method notes: cell number relative to DMSO (% of DMSO); higher = more cells (less growth inhibition / toxicity)
# condition summary: concentration: 10 µM; 24 h

molecule: COc1ccc(Cl)cc1NC(=O)Nc1cc(C)nc2ccccc12 [N-(5-Chloro-2-methoxyphenyl)-N'-(2-methyl-4-quinolinyl)urea]
system tested: HCC1569
cell number: 90
//
molecule: COC(C(=O)C(O)C(C)O)C1Cc2cc3cc(OC4CC(OC5CC(O)C(O)C(C)O5)C(O)C(C)O4)c(C)c(O)c3c(O)c2C(=O)C1OC1CC(OC2CC(OC3CC(C)(O)C(O)C(C)O3)C(O)C(C)O2)C(O)C(C)O1 (centres undefined)
system tested: HCC1569
cell number: 68.7
//
molecule: CC[C@@]1(O)C(=O)OCc2c1cc1n(c2=O)Cc2cc3c(CN(C)C)c(O)ccc3nc2-1
system tested: HCC1569
cell number: 61.3
//
molecule: CNC(CC(C)C)C(=O)NC1C(=O)NC(CC(N)=O)C(=O)NC2C(=O)NC3C(=O)NC(C(=O)NC(C(=O)O)c4cc(O)cc(O)c4-c4cc3ccc4O)C(O)c3ccc(c(Cl)c3)Oc3cc2cc(c3OC2OC(CO)C(O)C(O)C2OC2CC(C)(N)C(O)C(C)O2)Oc2ccc(cc2Cl)C1O.Cl (centres undefined) [Vancomycin hydrochloride from Streptomyces orientalis]
system tested: HCC1569
cell number: 99.6

* * *

compounds and their reported H1.0 immunofluorescence intensity
# Tested on: TDF
# test method notes: H1.0 immunofluorescence intensity relative to DMSO (% of DMSO); higher = stronger H1.0 induction, active = 120 or more
# condition summary: concentration: 10 µM; 24 h

compound: CCCCS(=N)(=O)CCC(N)C(=O)O [L-Buthionine-sulfoximine]
H1.0 immunofluorescence intensity: 97.4
//
compound: CCC1(O)C(=O)OCc2c1cc1n(c2=O)Cc2cc3c(CN(C)C)c(O)ccc3nc2-1.Cl (stereo not drawn) [Topotecan.HCl]
H1.0 immunofluorescence intensity: 154
//
compound: [N-]=[N+]=Nc1ccc(C(=O)CSCC(NC(=O)CCC(N)C(=O)O)C(=O)NCC(=O)O)cc1 (stereo not drawn) [S-(p-Azidophenacyl)glutathione]
H1.0 immunofluorescence intensity: 95.5
//
compound: COc1cc(CNC(=O)CCCCCCC(C)C)ccc1O [Dihydrocapsaicin]
H1.0 immunofluorescence intensity: 91.1
//
compound: CCCCCCCCC=CCCCCCCCC(=O)O [9(Z)-Octadecenoic acid]
H1.0 immunofluorescence intensity: 97.5
//
compound: NC(Cn1ccc(=O)c(O)c1)C(=O)O [L-Mimosine]
H1.0 immunofluorescence intensity: 105
//
compound: Cc1ccc(NC2=CC(=O)c3sc(C)nc3C2=O)cc1
H1.0 immunofluorescence intensity: 122
//
compound: COC1=C(OC)C(=O)C(CCCCCCCCCCO)=C(C)C1=O [Idebenone]
H1.0 immunofluorescence intensity: 101
//
compound: CC(N)(Cc1ccc(O)c(O)c1)C(=O)O [L-alpha-Methyl DOPA]
H1.0 immunofluorescence intensity: 91.3
//
compound: NCCCCCC(=O)O [6-Aminohexanoic acid]
H1.0 immunofluorescence intensity: 106
//
compound: CC(C)CCNC(C)C1CCC2C3CC=C4CC(O)CCC4(C)C3CCC12C (stereo not drawn) [22-Azacholesterol]
H1.0 immunofluorescence intensity: 104
//
compound: CC(OC1OCCN(Cc2nc(=O)[nH][nH]2)C1c1ccc(F)cc1)c1cc(C(F)(F)F)cc(C(F)(F)F)c1 (stereo not drawn) [Aprepitant]
H1.0 immunofluorescence intensity: 99.3
//
compound: Cc1[nH]c2ccccc2c1CCNC(=O)c1cccs1 [N-[2-(2-methyl-1H-indol-3-yl)ethyl]-2-thiophenecarboxamide]
H1.0 immunofluorescence intensity: 97.1
//
compound: CCC1C(=O)OCC1Cc1cncn1C.O=[N+]([O-])O (stereo not drawn) [Pilocarpine nitrate]
H1.0 immunofluorescence intensity: 98.7
//
compound: O=C(Nc1cccc(Nc2cc(Nc3cccc(C(F)(F)F)c3)ncn2)c1)C1CC1 [EGFR Inhibitor]
H1.0 immunofluorescence intensity: 178
//
compound: CCN(CC)CCCC(C)Nc1c2ccc(Cl)cc2nc2ccc(OC)cc12 (stereo not drawn) [Quinacrine]
H1.0 immunofluorescence intensity: 118
//
compound: CC(Oc1c(Cl)cccc1Cl)C1=NCCN1.Cl (stereo not drawn) [Lofexidine.HCl]
H1.0 immunofluorescence intensity: 100
//
compound: C=C1C(=O)C23C(O)C1CCC2C12COC3(O)C(O)C1C(C)(C)CCC2O (stereo not drawn) [Rubescensin A]
H1.0 immunofluorescence intensity: 96.2

* * *

# Test system: TDF
# test method notes: H1.0 immunofluorescence intensity relative to DMSO (% of DMSO); higher = stronger H1.0 induction, active = 120 or more
# condition summary: concentration: 10 µM; 24 h
Counter-ions that a name gives are not always drawn.
recorded metric: H1.0 immunofluorescence intensity

compound: Cl.O=C(O)C1=CCNCC1 [Isoguvacine hydrochloride]
system tested: TDF
result value: 106

compound: Br.C=CCN1CCc2c(cc(O)c(O)c2Br)C(c2ccccc2)C1 (stereo not drawn) [R(+)-6-Bromo-APB hydrobromide]
system tested: TDF
result value: 89.7

compound: Cc1cc(CS(=O)(=O)c2ccccc2)cc(OCc2ccc(CN3CCC[C@@H]3CO)cc2)c1 [PF-543 hydrochloride]
system tested: TDF
result value: 102

compound: COc1cc(=O)n(C)c2c(OCC(O)C(C)(C)O)cccc12 (centres undefined) [Foliosidine]
system tested: TDF
result value: 93.5

compound: CC1(C)C=Cc2c(ccc3c2OC[C@@H](c2ccc(O)cc2O)C3)O1
system tested: TDF
result value: 101

compound: C=CC[C@H](N)C(=O)O [L-allylglycine]
system tested: TDF
result value: 95.9

compound: CC1(C)C2CCC1(C(=O)O)C(=O)C2 (centres undefined) [Ketopinic acid]
system tested: TDF
result value: 99.7

compound: CC1CCN(CCC2CCCN2S(=O)(=O)c2cccc(O)c2)CC1.Cl (centres undefined)
system tested: TDF
result value: 92.1

compound: CCCCS(=O)(=O)N[C@@H](Cc1ccc(OCCCCC2CCNCC2)cc1)C(=O)O.Cl.O
system tested: TDF
result value: 97.7

* * *

# Test system: TDF
# test method notes: H1.0 immunofluorescence intensity relative to DMSO (% of DMSO); higher = stronger H1.0 induction, active = 120 or more
# condition summary: concentration: 10 µM; 24 h
recorded metric: H1.0 immunofluorescence intensity

compound: O=C(NCCNCC(O)COc1ccc(O)cc1)N1CCOCC1.O=C(O)C=CC(=O)O (stereo unspecified) [Xamoterol hemifumarate]
recorded metric: H1.0 immunofluorescence intensity
result value: 88.7
--
compound: Cc1cc(C(C)(C)C)c(O)c(C)c1CC1=NCCN1.Cl [Oxymetazoline hydrochloride]
recorded metric: H1.0 immunofluorescence intensity
result value: 93.9
--
compound: O=C1NC(=O)C(=Cc2ccc3c(c2)OC(F)(F)O3)S1 [PI 3-KbInhibitor II]
recorded metric: H1.0 immunofluorescence intensity
result value: 103
--
compound: CCCCCCCCCCCCCCCCOCC(CO)OC(C)=O (stereo unspecified) [1-Hexadecyl-2-O-acetyl-glycerol]
recorded metric: H1.0 immunofluorescence intensity
result value: 98.3
--
compound: O=C(c1ccc2c(c1)OCCO2)N1CCCCC1
recorded metric: H1.0 immunofluorescence intensity
result value: 96.7
--
compound: O=C1NCN(c2ccccc2)C12CCN(CCCC(c1ccc(F)cc1)c1ccc(F)cc1)CC2 [Fluspirilene]
recorded metric: H1.0 immunofluorescence intensity
result value: 106
--
compound: Cn1ccc(NC(=O)c2cc(Oc3ccc(C(=O)N4CCC4)c(F)c3)c3c(c2)OC(C)(C)C3)n1
recorded metric: H1.0 immunofluorescence intensity
result value: 102
--
compound: CC(C)(C)NCC(O)c1ccc(O)c(CO)c1.CC(C)(C)NCC(O)c1ccc(O)c(CO)c1.O=S(=O)(O)O (stereo unspecified) [Salbutamol hemisulfate]
recorded metric: H1.0 immunofluorescence intensity
result value: 84.9
--
compound: COc1cc2ccc(=O)oc2cc1O [Scopoletin]
recorded metric: H1.0 immunofluorescence intensity
result value: 101
--
compound: CN1C2CCC1CC(OC(=O)c1c[nH]c3ccccc13)C2.Cl (stereo unspecified) [3-Tropanyl-indole-3-carboxylate hydrochloride]
recorded metric: H1.0 immunofluorescence intensity
result value: 93.4
--
compound: CC1Cc2ccccc2N1NC(=O)c1ccc(Cl)c(S(N)(=O)=O)c1 (stereo unspecified) [Indapamide]
recorded metric: H1.0 immunofluorescence intensity
result value: 88.5
--
compound: COc1ccc(C2CC(=O)c3c(O)cc(OC4OC(COC5OC(C)C(O)C(O)C5O)C(O)C(O)C4O)cc3O2)cc1O (stereo unspecified) [Hesperidine]
recorded metric: H1.0 immunofluorescence intensity
result value: 93.2
--
compound: C[N+](C)(C)CC=O.[Cl-] [Betaine aldehyde chloride]
recorded metric: H1.0 immunofluorescence intensity
result value: 94.6
--
compound: O=C1C(=O)c2ccccc2C(O)=C1C1CCC(c2ccc(Cl)cc2)CC1 (stereo unspecified) [Atovaquone]
recorded metric: H1.0 immunofluorescence intensity
result value: 95
--
compound: O=C(Nc1cccc(Nc2ncc(Br)c(NCCc3cnc[nH]3)n2)c1)N1CCCC1
recorded metric: H1.0 immunofluorescence intensity
result value: 113
--
compound: Cc1nc2sccn2c(=O)c1CCN1CCC(=C(c2ccccc2)c2ccc(F)cc2)CC1 [Diacylglycerol kinase inhibitor I]
recorded metric: H1.0 immunofluorescence intensity
result value: 96

From: the supplement of paper PMC7156485
